# EXPERIMENTAL DETAILS: Stability in human liver microsomes assessed as half life measured for 45 mins by LC-MS/MS analysis
# Assay type: ADME, Microsome

>  <SUBSTANCE SMILES>
O=C(COc1ccc(Br)cc1)Nc1ccc2nc[nH]c2c1

>  <half-life, h>
3.27

$$$$

---

# EXPERIMENTAL DETAILS: Tmax in SD […] at 20 mg/kg, po measured for 24 hrs
# Assay type: ADME, organism-based
# TEST CONTEXT: in vivo

>  <SUBSTANCE SMILES>
O=C(COc1ccc(Br)cc1)Nc1ccc2nc[nH]c2c1

>  <Tmax (min)>
32

$$$$
